# System Tested: T1, human IL-36γ, truncated (human, UniProt Q9NZH8 18-169)
# T1 sequence: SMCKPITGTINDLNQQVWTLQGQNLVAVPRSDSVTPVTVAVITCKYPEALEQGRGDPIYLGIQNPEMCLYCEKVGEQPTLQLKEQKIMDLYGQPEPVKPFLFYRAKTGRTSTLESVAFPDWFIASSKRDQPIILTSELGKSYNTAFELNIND
# Protocol Text: cell-based or functional assay
Measured Property: IC50 of IL-8 secretion, primary human monocytes, 50 nM human IL-36γ, FIG. 5D (nM)
Provide the reading as a plain figure in nM.

144L133B (antibody, V domains shown) VH: EVQLQQSGAELVKPGASVKLSCTASGFNIKDTYMYWVKQRPEQGLEWIGRIDPAIGTTRYDPKFQGKATLTADTSSNTAFLQLSSLTSEDTAVYYCARYDYSGSSFYFDYWGRGTTLTVSS VL: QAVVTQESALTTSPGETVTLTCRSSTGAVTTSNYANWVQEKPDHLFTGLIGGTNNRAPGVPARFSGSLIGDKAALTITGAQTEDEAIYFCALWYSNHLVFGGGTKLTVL has a reported IC50 of IL-8 secretion, primary human monocytes, 50 nM human IL-36γ, FIG. 5D of 39.6

Numbers sourced from patent US20210380675A1.
